conditions: in ethanol, 308.15 K
quantity.kind: solubility (mole fraction)
Numbers only.

Recorded solubility (mole fraction) (compound CN1C(C(=O)Nc2ccccn2)=C(O)c2sccc2S1(=O)=O ): 4.56e-05

----------
settings: in ethanol, 298.15 K
quantity.kind: solubility (mole fraction)

The compound CN1C(C(=O)Nc2ccccn2)=C(O)c2sccc2S1(=O)=O showed solubility (mole fraction) equal to 3.71e-05

----------
conditions: in n-butanol, 298.15 K
quantity.kind: solubility (mole fraction)
One number for each entry.

The recorded solubility (mole fraction) for entry CN1C(C(=O)Nc2ccccn2)=C(O)c2sccc2S1(=O)=O equals 8.13e-05

----------
settings: in ethanol, 313.15 K
quantity.kind: solubility (mole fraction)
Give bare numbers.

The value of solubility (mole fraction) measured for the compound CN1C(C(=O)Nc2ccccn2)=C(O)c2sccc2S1(=O)=O turned out to be 4.98e-05

----------
details: in PEG-400, 323.15 K
quantity.kind: solubility (mole fraction)
Numbers only.

Entry under test: CN1C(C(=O)Nc2ccccn2)=C(O)c2sccc2S1(=O)=O . Its solubility (mole fraction) was 0.0345

----------
settings: in PEG-400, 298.15 K
quantity.kind: solubility (mole fraction)
Give bare numbers.

CN1C(C(=O)Nc2ccccn2)=C(O)c2sccc2S1(=O)=O has a reported solubility (mole fraction) of 0.00976

----------
conditions: in water, 303.15 K
quantity.kind: solubility (mole fraction)

Per the record, CN1C(C(=O)Nc2ccccn2)=C(O)c2sccc2S1(=O)=O has solubility (mole fraction) of 5.07e-06

----------
details: in ethyl acetate, 303.15 K
quantity.kind: solubility (mole fraction)
Give bare numbers.

solubility (mole fraction) for CN1C(C(=O)Nc2ccccn2)=C(O)c2sccc2S1(=O)=O is 0.000746

----------
conditions: in isopropanol, 308.15 K
quantity.kind: solubility (mole fraction)
One number for each entry.

For CN1C(C(=O)Nc2ccccn2)=C(O)c2sccc2S1(=O)=O the compound record lists solubility (mole fraction) as 0.000125

----------
conditions: in ethanol, 323.15 K
quantity.kind: solubility (mole fraction)

solubility (mole fraction) for CN1C(C(=O)Nc2ccccn2)=C(O)c2sccc2S1(=O)=O is 5.84e-05

----------
settings: in PEG-400, 303.15 K
quantity.kind: solubility (mole fraction)

Quick note, solubility (mole fraction) for CN1C(C(=O)Nc2ccccn2)=C(O)c2sccc2S1(=O)=O landed at 0.0131

----------
details: in ethylene glycol, 303.15 K
quantity.kind: solubility (mole fraction)
One number for each entry.

CN1C(C(=O)Nc2ccccn2)=C(O)c2sccc2S1(=O)=O yielded solubility (mole fraction) of 0.000246

----------
details: in transcutol, 303.15 K
quantity.kind: solubility (mole fraction)
Give bare numbers.

Data point: CN1C(C(=O)Nc2ccccn2)=C(O)c2sccc2S1(=O)=O ; solubility (mole fraction) = 0.00202

----------
details: in sec-butanol, 303.15 K
quantity.kind: solubility (mole fraction)
Give bare numbers.

solubility (mole fraction) reported for this compound CN1C(C(=O)Nc2ccccn2)=C(O)c2sccc2S1(=O)=O : 8.79e-05

----------
conditions: in propylene glycol, 298.15 K
quantity.kind: solubility (mole fraction)
Numbers only.

Sample CN1C(C(=O)Nc2ccccn2)=C(O)c2sccc2S1(=O)=O ; solubility (mole fraction) observed: 0.000194

----------
conditions: in ethylene glycol, 308.15 K
quantity.kind: solubility (mole fraction)
Numbers only.

Form: compound = CN1C(C(=O)Nc2ccccn2)=C(O)c2sccc2S1(=O)=O ; solubility (mole fraction) = 0.000283

Just for reference, BigSolDB 2.1 is where these values come from.
